Field: pIC50. Provide a value for each of the compounds that follow.
Target: VIM-1 (Pseudomonas aeruginosa)
Conditions: cleavage of nitrocefin (200 uM) by VIM-1 supernatant
pIC50: −log10 of the molar value.

Provide reported pIC50 for each item, in the same order as listed.
1. O=C(O)c1cccc2c1OB(O)[C@@H](Sc1c[nH]nn1)C2 [Compound 12]
2. O=C(O)c1cccc2c1OB(O)[C@@H](Sc1nncs1)C2 [Compound 1]
3. O=C(O)c1cccc2c1OB(O)[C@@H](Sc1cccnc1)C2 [Compound 8]

> 6.00
> 6.00
> 6.00

Batch request: pIC50 per item, same order as input.
1. Nc1nnc(S[C@H]2Cc3cccc(C(=O)O)c3OB2O)s1 [Compound 4]
2. Nn1cnnc1S[C@H]1Cc2cccc(C(=O)O)c2OB1O [Compound 14]
3. O=C(O)c1cccc2c1OB(O)[C@@H](Sc1ccccc1)C2 [Compound 6]
4. O=C(O)c1cccc2c1OB(O)[C@@H](OCc1ccccc1)C2 [Compound 13]

1. > 6.00
2. > 6.00
3. > 6.00
4. > 6.00

----------
Target: NDM-1 (Klebsiella pneumoniae)
Type: biochemical
Details: read-out: Ki, Imipenem
pKi: −log10 of the molar value.
assay-metric: pKi

molecule="CC(=N)S[C@H]1Cc2cccc(C(=O)O)c2OB1O [Compound 10]" meas_value="7.00 to 8.00"

Hey, can you go through the list below and give me pKi for every item?
1. O=C(O)c1cccc2c1OB(O)[C@@H](OCc1ccccc1)C2 [Compound 13]
2. O=C(O)c1cccc2c1OB(O)[C@@H](Sc1nncs1)C2 [Compound 1]
3. Nc1nnc(S[C@H]2Cc3cccc(C(=O)O)c3OB2O)s1 [Compound 4]
4. NC(=O)CCS[C@H]1Cc2cccc(C(=O)O)c2OB1O [Compound 9]
5. O=C(O)c1cccc2c1OB(O)[C@@H](Sc1ccccc1)C2 [Compound 6]

1: 7.00 to 8.00; 2: 7.00 to 8.00; 3: > 8.00; 4: < 7.00; 5: > 8.00

Lab note: each molecule below needs its pKi filled in.
1. O=C(O)c1cccc2c1OB(O)[C@@H](Sc1nccs1)C2 [Compound 11]
2. NC(=O)CS[C@H]1Cc2cccc(C(=O)O)c2OB1O [Compound 3]
3. O=C(O)c1cccc2c1OB(O)[C@@H](Sc1cccnc1)C2 [Compound 8]
4. CC(=O)Nc1nnc(S[C@H]2Cc3cccc(C(=O)O)c3OB2O)s1 [Compound 7]

1. < 7.00
2. < 7.00
3. < 7.00
4. 7.00 to 8.00

----------
Target: NDM-1 (Klebsiella pneumoniae, UniProt C7C422)
Sequence (C7C422 29-270 limits assumed): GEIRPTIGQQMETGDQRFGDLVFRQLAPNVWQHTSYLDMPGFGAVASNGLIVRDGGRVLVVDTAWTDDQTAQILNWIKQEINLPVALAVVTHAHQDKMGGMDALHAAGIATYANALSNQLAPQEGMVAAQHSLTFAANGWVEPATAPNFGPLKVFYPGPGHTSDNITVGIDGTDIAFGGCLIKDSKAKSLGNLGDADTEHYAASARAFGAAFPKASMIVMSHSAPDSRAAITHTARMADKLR
Type: biochemical
Settings: read-out: Ki, Imipenem
For each entry below, report its Ki value.

Example entries and their recorded answers appear below.
structure_smiles=O=C(O)c1cccc2c1OB(O)[C@@H](Sc1c[nH]nn1)C2 meas_value="10 to 100 nM"
structure_smiles=Cn1nnnc1S[C@H]1Cc2cccc(C(=O)O)c2OB1O meas_value="10 to 100 nM"

Now turn to the next compound.
Ki in this record for `O=C(O)c1cccc2c1OB(O)[C@@H](Sc1nnc[nH]1)C2` : < 10 nM

----------
Biological target: NDM-1 (Klebsiella pneumoniae)
Assay type: biochemical
Conditions: read-out: Ki NDM-1, Imipenem
pKi: −log10 of the molar value.
assay-metric: pKi

Known results for compounds:
structure_smiles=O=C(O)c1cccc2c1OB(O)[C@@H](Sc1nncs1)C2 assay_metric=pKi meas_value="7.00 to 8.00"
structure_smiles=O=C(O)c1cccc2c1OB(O)[C@@H](Sc1nnc[nH]1)C2 assay_metric=pKi meas_value="> 8.00"
structure_smiles=O=C(O)c1cccc2c1OB(O)[C@@H](Sc1ccccc1)C2 assay_metric=pKi meas_value="> 8.00"
structure_smiles=O=C(O)c1cccc2c1OB(O)[C@@H](Sc1nccs1)C2 assay_metric=pKi meas_value="< 7.00"
structure_smiles=NC(=O)CCS[C@H]1Cc2cccc(C(=O)O)c2OB1O assay_metric=pKi meas_value="< 7.00"
structure_smiles=O=C(O)c1cccc2c1OB(O)[C@@H](Sc1c[nH]nn1)C2 assay_metric=pKi meas_value="7.00 to 8.00"
structure_smiles=O=C(O)c1cccc2c1OB(O)[C@@H](Sc1cccnc1)C2 assay_metric=pKi meas_value="< 7.00"
structure_smiles=Nc1nnc(S[C@H]2Cc3cccc(C(=O)O)c3OB2O)s1 assay_metric=pKi meas_value="> 8.00"

Consider the following items and state reported pKi for each.
1. CC(=N)S[C@H]1Cc2cccc(C(=O)O)c2OB1O
2. O=C(O)c1cccc2c1OB(O)[C@@H](OCc1ccccc1)C2
3. NC(=O)CS[C@H]1Cc2cccc(C(=O)O)c2OB1O
4. Cn1nnnc1S[C@H]1Cc2cccc(C(=O)O)c2OB1O
5. CC(=O)Nc1nnc(S[C@H]2Cc3cccc(C(=O)O)c3OB2O)s1

7.00 to 8.00
7.00 to 8.00
< 7.00
7.00 to 8.00
7.00 to 8.00
